system: HS 578T breast; experiment: NCI-60 one-dose screen, 48 h (100 = growth as untreated, 0 = no growth, -100 = all killed); settings: 10 µM unless noted
About 83,000 compounds went through this panel and 20% of them were active in at least one assay; those are over-represented in the sample as a whole.
Result type: growth (%)
Output spec: scalar in %, unitless text.

Below, 3 molecules whose answers are already recorded.
C[C@H](CCC(=O)NCc1ccc(C(=O)Nc2ccccc2N)cc1)[C@H]1CC[C@H]2[C@@H]3[C@@H](O)C[C@@H]4C[C@H](O)CC[C@]4(C)[C@H]3CC[C@]12C :: 69.6
CS(=O)(=O)c1ncc(-c2ccccc2)cn1 :: 111
Cc1ccc(C(=O)NN2C(=O)/C(=C/C=C/c3ccco3)SC2=S)cc1 :: 96.5

Which measured growth value corresponds to N=c1c2cc(-c3ccccc3)oc2ncn1/N=C/c1ccc(Br)cc1 ? 79.1

Proceed to Nc1nc(-c2cccc([N+](=O)[O-])c2)c(N=Nc2cccc([N+](=O)[O-])c2)s1 37.6
